Target: T1, E. coli Exonuclease I (E. coli, UniProt P04995 1-471)
T1 construct: Exonuclease I of E. coli, from plasmid pET14b-E. coli Exonuclease I (Addgene 104552); The His tag was cut off with thrombin only for the purified protein; also called ExoI; Exol; source: E. coli BL21 (DE3) pLysS, purified (Ni-NTA, heparin); also in cell lysate (pull-down)
T1 sequence: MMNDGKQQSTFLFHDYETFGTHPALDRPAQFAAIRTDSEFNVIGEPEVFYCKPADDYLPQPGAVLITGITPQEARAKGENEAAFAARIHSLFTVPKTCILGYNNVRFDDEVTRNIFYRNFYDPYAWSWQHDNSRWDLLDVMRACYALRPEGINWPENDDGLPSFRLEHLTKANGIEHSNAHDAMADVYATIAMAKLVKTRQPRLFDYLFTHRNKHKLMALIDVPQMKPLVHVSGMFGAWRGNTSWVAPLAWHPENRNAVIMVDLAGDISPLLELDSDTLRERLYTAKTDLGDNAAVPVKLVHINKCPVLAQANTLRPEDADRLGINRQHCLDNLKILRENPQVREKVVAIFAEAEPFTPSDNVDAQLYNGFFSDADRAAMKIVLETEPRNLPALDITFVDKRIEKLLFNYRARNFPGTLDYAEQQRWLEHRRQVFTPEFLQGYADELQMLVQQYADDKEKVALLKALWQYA
Assay: fluorescence polarisation; direct fluorescence anisotropy: ExoI serially diluted from 16 µM, 50 nM fluorescein-labelled peptide, 30 min, 25 °C; 20 mM Tris-HCl pH 8.0, 100 mM NaCl, 1 mM MgCl2, 1 mM 2-mercaptoethanol, 10% glycerol
Conditions: both partners purified
pEC50: −log10 of the molar value. Where no end group is shown, it is not given here. [ ]: non-standard residue; d: D form. 5,6‑carboxyfluorescein = 5,6-carboxyfluorescein; Phe(4-CF3) = N[C@@H](Cc1ccc(C(F)(F)F)cc1)C(=O)O; Nle = CCCC[C@H](N)C(=O)O
Classification field: T = pEC50 at or over 7; F = pEC50 under 7.

[[record]]
binder = "{5,6‑carboxyfluorescein}-GGDFDDDIPF (two glycines between the 5,6-carboxyfluorescein and the peptide; also called F-SSB-Ct; F-wtSSB-Ct; source: synthetic peptide (solid phase, HPLC purified)) [fluorescein-labeled wtSSB-Ct]"
assigned_label = "F"

[[record]]
binder = "{5,6‑carboxyfluorescein}-GGDFDDDLPF (two glycines between the 5,6-carboxyfluorescein and the peptide; E. coli SSB-Ct, residues 171-178; numbers count on: the octapeptide (position 1 = SSB residue 171); One of Compounds 54-62 of the Supplementary Material; also called F-mSSB Leu6; source: synthetic peptide) [F-Leu6 (fluorescein-labelled single mutant)]"
assigned_label = "F"

[[record]]
binder = "{5,6‑carboxyfluorescein}-GGD[Phe(4-CF3)]DDDIPF (two glycines between the 5,6-carboxyfluorescein and the peptide; E. coli SSB-Ct, residues 171-178; F at position 2 stands for 4-CF3-Phe; numbers count on: the octapeptide (position 1 = SSB residue 171); One of Compounds 54-62 of the Supplementary Material; also called F-mSSB 4CF3-Phe2; source: synthetic peptide) [F-4CF3-Phe2 (fluorescein-labelled single mutant)]"
assigned_label = "T"

[[record]]
binder = "{5,6‑carboxyfluorescein}-DFDDD[Nle]PF [F-nLe6 (fluorescein-labelled single mutant)]"
assigned_label = "F"

